# Tested on: SR leukemia
# procedure_text: NCI tumour cell line growth inhibition, 48 h
property: TGI

These solved cases illustrate the format of a correct answer.
molecule: COc1cc(C2c3cc4c(cc3OC(N3CCCCC3)C2C)OCO4)cc(OC)c1OC (centres undefined)
result: > 54.2 µM

molecule: C=C(C)[C@@H]1CC[C@]2(CNCCO)CC[C@]3(C)[C@H](CC[C@@H]4[C@@]5(C)CCC(N)[C@@](C)(CO)[C@@H]5CC[C@]43C)[C@@H]12 (some centres undefined)
result: 4.08 µM

molecule: COc1ccc2c(c1OC)CN1CCc3cc4c(cc3C1C2)OCO4 (centres undefined)
result: > 100 µM

molecule: O=C([O-])c1ccc2c(c1)-c1nc-2nc2[n-]c(nc3nc(nc4[n-]c(n1)c1ccc(C(=O)[O-])cc41)-c1ccc(C(=O)[O-])cc1-3)c1ccc(C(=O)[O-])cc21.[Gd+3].[K+]
result: 53.9 µM

molecule: COc1cc(/C=N/N=C(\N)NO)cc(Cl)c1O
result: > 100 µM

Look at each molecule and report its TGI.
1. Nc1ncnc2oc(-c3cccs3)nc12
2. CC(C)(Cl)C(Cl)CC/C(CBr)=C(\Cl)CCl (centres undefined)
3. Cc1ccnc(NS(=O)(=O)c2ccc(NC3=CC(=O)C(=O)c4ccccc43)cc2)n1
4. O=C(O)c1ccccc1C1CCCc2c1[nH]c1ccccc21 (centres undefined)

Result:
1. > 100 µM
2. 3.31 µM
3. > 100 µM
4. > 100 µM

Value source: PubChem BioAssay (NCI)
